// values below are reported IC50
Biological target: BIR3 domain of XIAP (Homo sapiens (Human))
Sequence (P98170 241-356 with tags or gaps limits assumed): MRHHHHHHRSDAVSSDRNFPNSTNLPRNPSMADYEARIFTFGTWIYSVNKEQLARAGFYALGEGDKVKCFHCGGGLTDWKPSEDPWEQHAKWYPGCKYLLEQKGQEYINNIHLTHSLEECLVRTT
Assay: TR-FRET assay for BIR3 (inhibition of binding of XIAP BIR3 domain to SMAC-derived Peptide A)
Details: 6x His-tagged BIR3 domain (aa 241-356 of XIAP) 10 nM, Peptide A 20 nM, TR-FRET
Structures can show the parent of a compound that is named as a salt.
Your answer is read as µM, so omit the unit and give the number.

Consider the worked cases shown below.
COMPOUND	ASSAYED SYSTEM	U	IC50
CN[C@@H](C)C(=O)N[C@H]1CN(C(=O)CC2CCOCC2)c2ccccc2N(Cc2c(C)ccc3ccccc23)C1=O [Example 96c]	BIR3 domain of XIAP (Homo sapiens (Human))	µM	28.1
CN[C@@H](C)C(=O)N[C@H]1CN(C(=O)CCCNC(=O)OCC2c3ccccc3-c3ccccc32)c2ccccc2N(Cc2c(OC)ccc3cc(C(=O)OC)ccc23)C1=O [Example 48, hydrochloride]	BIR3 domain of XIAP (Homo sapiens (Human))	µM	33.2
CN[C@@H](C)C(=O)N[C@H]1CN(C(=O)c2ccc(C(C)=O)cc2)c2ccccc2N(Cc2noc3cc(Br)ccc23)C1=O [Example 69e]	BIR3 domain of XIAP (Homo sapiens (Human))	µM	50.3

Return IC50 for the following compound: CN[C@@H](C)C(=O)N[C@H]1CN(C(=O)c2ccc(C(C)=O)cc2)c2cc(Cl)ccc2N(Cc2c(OC)ccc3c(Br)cccc23)C1=O [Example 125, hydrochloride]
25.6

Value source: patent US10053431B2
